Biological target: wt human LRRK2, catalytic site (Homo sapiens)
Construct: 5 nM wt human LRRK2, catalytic site
Sequence (Q5S007 970-2527 limits assumed): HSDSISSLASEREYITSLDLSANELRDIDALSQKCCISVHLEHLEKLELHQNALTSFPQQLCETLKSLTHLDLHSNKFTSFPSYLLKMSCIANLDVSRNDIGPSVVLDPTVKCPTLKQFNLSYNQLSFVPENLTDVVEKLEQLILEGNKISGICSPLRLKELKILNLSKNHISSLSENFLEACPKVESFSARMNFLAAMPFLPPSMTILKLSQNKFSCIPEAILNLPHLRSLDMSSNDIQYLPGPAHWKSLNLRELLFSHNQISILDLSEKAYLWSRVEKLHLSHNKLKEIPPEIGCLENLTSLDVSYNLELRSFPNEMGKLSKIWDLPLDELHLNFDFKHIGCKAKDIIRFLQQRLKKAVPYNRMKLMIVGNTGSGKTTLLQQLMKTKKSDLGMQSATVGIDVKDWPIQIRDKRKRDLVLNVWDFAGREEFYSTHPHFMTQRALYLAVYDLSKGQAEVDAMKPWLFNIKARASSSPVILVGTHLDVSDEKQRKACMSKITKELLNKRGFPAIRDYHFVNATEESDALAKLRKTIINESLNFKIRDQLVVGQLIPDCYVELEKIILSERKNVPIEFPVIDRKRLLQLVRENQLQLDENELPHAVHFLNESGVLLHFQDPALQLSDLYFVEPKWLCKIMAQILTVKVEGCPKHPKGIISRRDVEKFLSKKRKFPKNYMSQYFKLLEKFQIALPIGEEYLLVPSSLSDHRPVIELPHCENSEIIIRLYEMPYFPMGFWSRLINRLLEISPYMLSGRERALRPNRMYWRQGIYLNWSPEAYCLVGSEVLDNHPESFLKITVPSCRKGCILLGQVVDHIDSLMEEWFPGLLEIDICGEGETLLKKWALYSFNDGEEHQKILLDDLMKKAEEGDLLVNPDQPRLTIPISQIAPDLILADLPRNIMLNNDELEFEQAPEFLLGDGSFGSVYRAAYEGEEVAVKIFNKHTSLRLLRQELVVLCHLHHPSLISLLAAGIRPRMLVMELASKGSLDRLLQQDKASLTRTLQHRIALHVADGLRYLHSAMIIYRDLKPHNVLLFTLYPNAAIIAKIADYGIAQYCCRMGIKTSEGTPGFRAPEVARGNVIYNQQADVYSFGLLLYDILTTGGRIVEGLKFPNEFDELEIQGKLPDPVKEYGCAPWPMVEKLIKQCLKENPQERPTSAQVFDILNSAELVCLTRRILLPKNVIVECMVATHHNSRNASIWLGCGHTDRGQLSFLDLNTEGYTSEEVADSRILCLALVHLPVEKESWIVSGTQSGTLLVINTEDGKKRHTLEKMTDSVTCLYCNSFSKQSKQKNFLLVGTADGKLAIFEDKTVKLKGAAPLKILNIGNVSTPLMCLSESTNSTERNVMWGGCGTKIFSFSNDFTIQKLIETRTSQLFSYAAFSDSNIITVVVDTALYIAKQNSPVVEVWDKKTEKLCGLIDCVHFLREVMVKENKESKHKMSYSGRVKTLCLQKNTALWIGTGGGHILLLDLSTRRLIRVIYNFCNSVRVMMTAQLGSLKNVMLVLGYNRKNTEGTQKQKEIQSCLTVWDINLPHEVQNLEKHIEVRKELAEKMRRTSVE
Assay: TR-FRET LanthaScreen Eu Kinase Binding Assay, LRRK2 wt
Conditions: one range stated for wt and G2019, read-out: IC50, Activity Toward LRRK2(Wt)
pIC50: −log10 of the molar value.
quantityMeasured: pIC50

Would you please look over these solved cases?
NC(=O)c1nn(-c2c(F)cccc2F)cc1Nc1ccc(C(=O)N2CCOCC2)nc1 6.00 to 7.00
Cc1cncc2nnc(-c3ccc(Nc4cn(-c5c(Cl)cccc5Cl)nc4C(N)=O)cn3)n12 6.00 to 7.00
CN1CCC(NC(=O)c2ccc(Nc3cn(-c4c(Cl)cccc4Cl)nc3C(N)=O)cc2)CC1 6.00 to 7.00

pIC50 recorded for this compound, CCc1nc(C(F)(F)F)nn1-c1ccc(Nc2cn(-c3c(F)cccc3F)nc2C(N)=O)cc1 , is 6.00 to 7.00
